tested on: SW-620 colon; test: NCI-60 one-dose screen, 48 h (100 = growth as untreated, 0 = no growth, -100 = all killed); conditions: 10 µM unless noted
The panel holds about 83,000 compounds, 20% with a hit somewhere; the sample as a whole holds those more often.
ASSAY ENDPOINT: growth (%)
Respond with the bare value in %.

[in] Tell me measured growth for Nc1cc(-c2c[nH]c3ccc(Br)cc23)nc2cc(-c3c[nH]c4ccccc34)nn12 please.
[out] -83.2

[in] Dear colleague, please send me the reported growth for O=C(Nc1nc2ccc([N+](=O)[O-])cc2s1)Nc1ccc(Cl)cc1Cl when you can.
[out] 75.9

[in] Dear colleague, please send me the reported growth for COc1ccc(S(=O)(=O)Nc2ccc(-c3ccc4c(c3)NC(=O)/C4=C\c3ccc[nH]3)cc2)cc1OC when you can.
[out] 16.1

[in] // Input: O=C(N=Nc1c(O)[nH]c2ccc(Cl)cc12)c1ccc2nc(-c3ccc(Cl)cc3)[nH]c2c1 . Output its growth only.
[out] 3.1

[in] State its growth: O=c1ccc(Cn2c(C(F)(F)F)cc3c(Cl)ncnc32)c[nH]1
[out] 32.5

====

test system: IGROV1 ovarian; assay: NCI-60 one-dose screen, 48 h (100 = growth as untreated, 0 = no growth, -100 = all killed); conditions: 10 µM unless noted
This is part of a sample that, as a whole, favours compounds with a hit. Of some 83,000 tested, about 20% had one in any assay.
Threshold check on growth: strictly below 70% is fulfilled; on or above 70% is not fulfilled.

molecule=NS(=O)(=O)c1ccc(Nc2nc(N/N=C/c3cc(Br)c(O)c(Br)c3)nc(Nc3ccccc3)n2)cc1 group=fulfilled
molecule=Cc1ccc2nc(COc3ccc(C(=O)NNC(=O)Nc4ccc(Cl)c(C(F)(F)F)c4)cc3)[nH]c2c1 group=fulfilled
molecule=O=C(CSc1nc2sc3c(c2c(=O)n1-c1ccc(Cl)cc1)CCCC3)N/N=C/C=C/c1ccccc1 group=fulfilled
molecule=S=C(Nc1ccccc1)Nc1ccc(OCc2nc3ccc(Cl)cc3[nH]2)cc1 group="not fulfilled"
molecule=O=C(Nc1ccc(S(=O)(=O)N2CCCCC2)cc1)C(Cl)Cl group="not fulfilled"
molecule=O=Cc1cncc(-c2ccc3ncnc(N4CCc5cc(F)c(Cl)cc54)c3c2)c1 group=fulfilled
molecule=Cn1cc(-c2cc(N)n3nc(-c4c[nH]c5ccc(F)cc45)cc3n2)c2cccnc21 group=fulfilled
molecule="CCOc1ccc2[nH]c(=O)c(C(c3nnnn3CC3CCCO3)N3CCN(Cc4ccccc4)CC3)cc2c1 (centres undefined)" group="not fulfilled"
molecule=O=C1Nc2ccccc2/C1=C/C(=O)c1cc2ccccc2oc1=O group="not fulfilled"
molecule=COc1c(B(O)O)cc(F)cc1-c1nc2ccc3[nH]ncc3c2c2c1COCC2 group=fulfilled

[in] Check if growth falls below 70% for O=S(=O)(c1nc(-c2ccc(Br)cc2)oc1-c1ccc(Cl)cc1)N1CCCC(O)C1 (centres undefined) .
[out] not fulfilled

[in] In plain terms, does O=C(c1ccc(Cl)cc1)C1[C@H](c2ccccc2Cl)[C@@H](c2ccccc2)NC12C(=O)Nc1ccc(Br)cc12 (some centres undefined) come in under 70% for growth?
[out] fulfilled

[in] For this molecule, is growth lower than 70%? Oc1ccc(Cl)c(Nc2ncnc3c2cnn3CC(Cl)c2ccc(Br)cc2)c1 (centres undefined)
[out] fulfilled

[in] Here's an entry: C#CCN(C)CCCOc1ccc(N(C)C(=O)c2cc(C(C)C)c(O)cc2O)cc1Cl . Is its growth below 70%?
[out] fulfilled

[in] Check if growth falls below 70% for COc1ccccc1NC(=O)c1ccc(NC(=O)CCl)s1 .
[out] fulfilled

[in] Input CC1=C(C)C(=O)C(NCCN2CCOCC2)=C(Br)C1=O ; condition: growth strictly below 70%. Does it hold?
[out] fulfilled

[in] Hi there! Is growth for CCCCCCCOc1ccc(S(=O)(=O)Nc2ccc(C)c(F)c2C(=O)O)cc1 below 70%, do you know?
[out] not fulfilled

[in] Please state whether growth is below 70% for Cc1ccc2nc(NC(=O)Nc3cccc(Cl)c3)sc2c1
[out] not fulfilled

[in] Below 70% on growth? Entry O=C(CSc1nnc(-c2ccc(-c3nc4ccccc4[nH]3)cc2)o1)Nc1ccc(Cl)cc1
[out] fulfilled

FYI, the data here is from PubChem BioAssay (NCI).
